Documented Anti-PSMA Fab (SEQ ID NOs: 19, 20) signal across a set of binders
TARGET OR SYSTEM: T1, Anti-PSMA Fab (SEQ ID NOs: 19, 20)
T1 construct: also called 006 PSMA Fab
PROCEDURE TEXT: phage binding ELISA; biotinylated PSMA Fab on neutravidin plate, clonal phage supernatant, anti-M13 HRP detection;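 further: wells were preincubated with blocking buffer either containing PSMA antigen or without it before crude phage supernatant was added, briefly incubated, then washed prior to detection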
Where no end group is shown, it is not given here.
// no unit string in output, number only

Worked examples, 10 binders total:
DMRWCIPAWMCEDR [Phage-2259]; 1.54
TEKWCIPAWMCQVS [Phage-2261]; 1.54
VELLCKPPWMCSGL [Phage-2255]; 1.54
GDRWCIPEWMCGVI [Phage-2265]; 1.54
MEMWCRPAWMCAHS (cysteine pairing not given here; also: displayed on phage, fused to pIII) [Phage-2257]; 1.54
ALKWCIPDWMCSQP [Phage-2264]; 1.54
VDRWCIPEWMCNEL [Phage-2260]; 1.54
EMHWCIPAWMCPDG [Phage-2266]; 1.54
YSHLCIPSWMCSWT [Phage-2263]; 1.54
PNIWCTPLWMCEGL [Phage-2262]; 1.54

Input line: Fill in: Anti-PSMA Fab (SEQ ID NOs: 19, 20) signal of NERWCIPSWMCQEA [Phage-2253] is ___
Output line: 1.55

Input line: Fill in: Anti-PSMA Fab (SEQ ID NOs: 19, 20) signal of MMKWCTPEWMCAMV (cysteine pairing not given here; also: displayed on phage, fused to pIII) [Phage-2258] is ___
Output line: 1.54

Input line: Fill in: Anti-PSMA Fab (SEQ ID NOs: 19, 20) signal of ITKLCTPPWMCTMV [Phage-2267] is ___
Output line: 1.53

Input line: Fill in: Anti-PSMA Fab (SEQ ID NOs: 19, 20) signal of PAKWCIPMWMCQVD [Phage-2254] is ___
Output line: 1.55

Input line: Fill in: Anti-PSMA Fab (SEQ ID NOs: 19, 20) signal of PVNWCKPPWMCEMW [Phage-2256] is ___
Output line: 1.54

Data origin, for the record: patent US20260242478A1
